study.target: SERT (Homo sapiens, UniProt P31645)
Sequence (P31645 whole entry, species assumed): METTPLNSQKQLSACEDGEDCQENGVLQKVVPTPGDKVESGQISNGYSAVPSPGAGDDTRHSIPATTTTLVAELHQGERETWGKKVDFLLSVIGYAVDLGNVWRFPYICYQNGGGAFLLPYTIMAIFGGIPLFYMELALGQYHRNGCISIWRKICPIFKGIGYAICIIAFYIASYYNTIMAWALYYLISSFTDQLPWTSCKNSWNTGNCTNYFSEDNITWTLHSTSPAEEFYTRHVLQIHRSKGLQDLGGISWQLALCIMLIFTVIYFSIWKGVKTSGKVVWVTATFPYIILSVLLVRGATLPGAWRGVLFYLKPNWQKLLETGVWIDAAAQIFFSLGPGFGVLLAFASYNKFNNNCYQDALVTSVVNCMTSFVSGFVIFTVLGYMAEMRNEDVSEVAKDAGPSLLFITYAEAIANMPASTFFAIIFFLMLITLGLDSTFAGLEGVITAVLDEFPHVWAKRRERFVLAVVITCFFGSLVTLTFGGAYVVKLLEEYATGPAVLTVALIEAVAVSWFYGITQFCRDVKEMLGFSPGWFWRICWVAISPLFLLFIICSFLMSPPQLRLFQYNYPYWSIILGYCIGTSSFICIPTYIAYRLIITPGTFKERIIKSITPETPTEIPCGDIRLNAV
protocol.description: PDSP radioligand binding assay
test.conditions: Table 5
readout.name: Ki (µM)

[[record]]
smiles_structure = "COc1ccc(N2CCN(CCCNC(=O)Cn3c(=O)c4cccn4c4c(C)ccnc43)CC2)cc1"
assay_result = 5.33


###

# IC50 listing for each entry below
study.target: KOR (Homo sapiens, UniProt P41145)
Sequence (P41145 whole entry): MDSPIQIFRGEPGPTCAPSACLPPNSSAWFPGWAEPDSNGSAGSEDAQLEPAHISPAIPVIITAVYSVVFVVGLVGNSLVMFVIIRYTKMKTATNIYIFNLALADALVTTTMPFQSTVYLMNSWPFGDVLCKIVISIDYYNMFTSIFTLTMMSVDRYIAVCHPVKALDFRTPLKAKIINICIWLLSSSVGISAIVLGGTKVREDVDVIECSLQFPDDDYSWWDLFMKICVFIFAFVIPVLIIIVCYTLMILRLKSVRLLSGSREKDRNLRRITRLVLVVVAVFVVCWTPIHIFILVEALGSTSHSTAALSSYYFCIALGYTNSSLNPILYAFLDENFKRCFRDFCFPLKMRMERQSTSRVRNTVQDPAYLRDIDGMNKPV
protocol.description: High content imaging β-arrestin translocation assay, KOR antagonist (KOR HCS)
Type: cell-based
test.conditions: antagonist; average; read-out: Potency, Target KOR HCS
readout.name: IC50 (µM)

[[record]]
smiles_structure = "O=C(Cn1c(=O)c2cccn2c2cccnc21)NCCCN1CCN(c2ccccc2)CC1"
readout_name = "IC50"
assay_result = 12.7

[[record]]
smiles_structure = "Cc1ccc(N2CCN(CCCNC(=O)Cn3c(=O)c4cccn4c4cccnc43)CC2)cc1"
readout_name = "IC50"
assay_result = 0.89

[[record]]
smiles_structure = "COc1ccc(N2CCN(CCCNC(=O)Cn3c(=O)c4cccn4c4cc(Br)cnc43)CC2)c(OC)c1"
readout_name = "IC50"
assay_result = 3.02

[[record]]
smiles_structure = "Cc1ccnc2c1n1cccc1c(=O)n2CC(=O)NCCCN1CCN(c2ccccc2)CC1"
readout_name = "IC50"
assay_result = 2.56


###

# Emax (%) listing for each entry below
study.target: KOR (Homo sapiens, UniProt P41145)
protocol.description: DISCOVERX β-arrestin […] assay, agonist mode (KOR DRx)
Format: cell-based
test.conditions: at highest concentration tested, compared to dynorphin A (Emax=100%)
readout.name: Emax (%)

[[record]]
smiles_structure = "O=[N+]([O-])c1ccc(CSc2nnc(-c3ccccn3)n2Cc2ccco2)cc1"
assay_result = "~120%"

[[record]]
smiles_structure = "FC(F)(F)c1ccc(CSc2nnc(-c3ccccn3)n2Cc2ccco2)cc1"
assay_result = "~166%"

[[record]]
smiles_structure = "FC(F)(F)c1ccc(CSc2nnc(-c3ccccn3)n2Cc2cccs2)cc1"
assay_result = "~149%"

[[record]]
smiles_structure = "N#Cc1ccc(CSc2nnc(-c3ccccn3)n2Cc2cccs2)cc1"
assay_result = "~142%"


###

study.target: UniProt:P41145
protocol.description: KOR1 DISCOVERX β-Arrestin […] assay, antagonist mode (KOR DRX)
Assay type: cell-based
readout.name: IC50

[[record]]
compound = "Cc1cccc(N2CCN(CCNC(=O)Cn3c(=O)c4cccn4c4cccnc43)CC2)c1C [1{25}]"
study_target = "UniProt:P41145"
assay_result = "> 20 µM"


###

study.target: M3 (Homo sapiens, UniProt P20309)
Sequence (P20309 whole entry): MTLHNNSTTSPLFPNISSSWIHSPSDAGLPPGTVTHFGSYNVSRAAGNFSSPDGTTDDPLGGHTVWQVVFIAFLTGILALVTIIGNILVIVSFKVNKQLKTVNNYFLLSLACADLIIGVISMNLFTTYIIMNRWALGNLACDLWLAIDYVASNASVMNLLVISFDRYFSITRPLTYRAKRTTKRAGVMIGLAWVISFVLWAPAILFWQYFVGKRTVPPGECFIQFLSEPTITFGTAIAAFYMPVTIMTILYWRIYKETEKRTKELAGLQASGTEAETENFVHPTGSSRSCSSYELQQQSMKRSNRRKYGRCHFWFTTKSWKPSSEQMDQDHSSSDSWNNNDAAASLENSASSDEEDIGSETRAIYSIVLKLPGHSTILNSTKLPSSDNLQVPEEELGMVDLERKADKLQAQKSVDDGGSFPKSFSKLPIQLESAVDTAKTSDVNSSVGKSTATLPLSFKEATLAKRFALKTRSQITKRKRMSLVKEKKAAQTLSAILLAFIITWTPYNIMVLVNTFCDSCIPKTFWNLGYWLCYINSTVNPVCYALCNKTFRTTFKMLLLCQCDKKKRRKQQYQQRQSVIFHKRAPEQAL
protocol.description: PDSP radioligand binding assay
test.conditions: Table 10
readout.name: Ki

[[record]]
smiles_structure = "Clc1ccc(CSc2nnc(-c3ccccn3)n2Cc2ccco2)cc1Cl"
assay_result = "> 10 µM"


###

study.target: 5ht1a (Homo sapiens, UniProt P08908)
Sequence (P08908 whole entry, species assumed): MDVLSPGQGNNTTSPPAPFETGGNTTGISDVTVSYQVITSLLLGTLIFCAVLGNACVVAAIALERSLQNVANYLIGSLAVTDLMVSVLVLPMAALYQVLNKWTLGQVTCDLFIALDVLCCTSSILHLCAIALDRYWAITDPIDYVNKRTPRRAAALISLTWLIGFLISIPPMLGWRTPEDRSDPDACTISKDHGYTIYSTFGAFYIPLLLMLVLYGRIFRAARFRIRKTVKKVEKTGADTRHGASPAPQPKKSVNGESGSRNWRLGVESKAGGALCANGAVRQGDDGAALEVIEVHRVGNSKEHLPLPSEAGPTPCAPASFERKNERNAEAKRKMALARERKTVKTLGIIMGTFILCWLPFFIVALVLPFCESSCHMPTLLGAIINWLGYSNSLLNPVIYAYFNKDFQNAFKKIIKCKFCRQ
protocol.description: PDSP radioligand binding assay
test.conditions: Table 5
pKi: −log10 of the molar value.
readout.name: pKi

[[record]]
smiles_structure = "COc1ccc(N2CCN(CCCNC(=O)Cn3c(=O)c4cccn4c4c(C)ccnc43)CC2)cc1"
study_target = "5ht1a (Homo sapiens, UniProt P08908)"
assay_result = "< 5.00"


###

study.target: D2 (Homo sapiens)
Sequence (P14416 whole entry): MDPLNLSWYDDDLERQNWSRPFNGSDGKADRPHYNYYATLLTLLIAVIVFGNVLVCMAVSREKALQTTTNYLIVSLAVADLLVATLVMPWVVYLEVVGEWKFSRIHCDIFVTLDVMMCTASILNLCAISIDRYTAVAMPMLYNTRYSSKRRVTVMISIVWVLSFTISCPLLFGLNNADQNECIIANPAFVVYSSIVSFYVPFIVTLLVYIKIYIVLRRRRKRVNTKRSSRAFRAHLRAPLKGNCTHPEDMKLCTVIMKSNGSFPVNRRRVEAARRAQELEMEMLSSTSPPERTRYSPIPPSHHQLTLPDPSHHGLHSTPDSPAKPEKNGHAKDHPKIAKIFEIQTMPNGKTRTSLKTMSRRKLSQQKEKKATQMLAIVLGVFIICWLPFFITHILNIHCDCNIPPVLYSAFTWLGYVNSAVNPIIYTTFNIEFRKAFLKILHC
protocol.description: PDSP radioligand binding assay
test.conditions: Table 5
pKi: −log10 of the molar value.
readout.name: pKi

[[record]]
smiles_structure = "COc1ccc(N2CCN(CCCNC(=O)Cn3c(=O)c4cccn4c4c(C)ccnc43)CC2)cc1"
readout_name = "pKi"
assay_result = 5.87


###

study.target: Alpha1A (Homo sapiens)
Sequence (P35348 whole entry): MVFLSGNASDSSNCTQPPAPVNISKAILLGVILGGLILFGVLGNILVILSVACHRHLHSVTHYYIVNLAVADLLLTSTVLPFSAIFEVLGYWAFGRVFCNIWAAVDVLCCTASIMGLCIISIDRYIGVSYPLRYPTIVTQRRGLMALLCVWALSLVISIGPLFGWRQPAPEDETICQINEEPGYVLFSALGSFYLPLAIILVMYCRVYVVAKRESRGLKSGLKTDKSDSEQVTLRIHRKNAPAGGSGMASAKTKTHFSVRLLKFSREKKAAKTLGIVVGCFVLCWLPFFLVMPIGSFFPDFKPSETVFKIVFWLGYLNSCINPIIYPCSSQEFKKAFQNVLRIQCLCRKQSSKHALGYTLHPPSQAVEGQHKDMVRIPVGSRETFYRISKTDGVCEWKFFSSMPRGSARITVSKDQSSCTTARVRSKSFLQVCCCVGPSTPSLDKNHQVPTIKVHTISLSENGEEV
protocol.description: PDSP radioligand binding assay
test.conditions: Table 5
pKi: −log10 of the molar value.
readout.name: pKi

[[record]]
molecule = "COc1ccc(N2CCN(CCCNC(=O)Cn3c(=O)c4cccn4c4c(C)ccnc43)CC2)cc1 [Compound 1{3}]"
readout_name = "pKi"
assay_result = "< 5.00"


###

study.target: M3 (Homo sapiens, UniProt P20309)
protocol.description: PDSP radioligand binding assay
test.conditions: Table 5
readout.name: Ki

[[record]]
smiles_structure = "COc1ccc(N2CCN(CCCNC(=O)Cn3c(=O)c4cccn4c4c(C)ccnc43)CC2)cc1"
study_target = "M3 (Homo sapiens, UniProt P20309)"
assay_result = "> 10 µM"


###

# Emax (%) listing for each entry below
study.target: KOR (Homo sapiens)
protocol.description: DISCOVERX β-arrestin […] assay, agonist mode (KOR DRx)
Type: cell-based
test.conditions: at highest concentration tested, compared to dynorphin A (Emax=100%)
readout.name: Emax (%)

[[record]]
molecule = "O=[N+]([O-])c1ccc(CSc2nnc(-c3ccccn3)n2Cc2cccs2)cc1 [Compound 2{26}]"
assay_result = "~128%"

[[record]]
molecule = "Cc1c(CSc2nnc(-c3ccccn3)n2Cc2cccs2)cccc1[N+](=O)[O-] [Compound 2{40}]"
assay_result = "~105%"

[[record]]
molecule = "Fc1ccc(CSc2nnc(-c3ccccn3)n2Cc2ccco2)c(C(F)(F)F)c1 [Compound 2{45}]"
assay_result = "~138%"

[[record]]
molecule = "FC(F)(F)c1cc(CSc2nnc(-c3ccccn3)n2Cc2ccco2)ccc1Cl [Compound 2{10}]"
assay_result = "~122%"

[[record]]
molecule = "Fc1ccc(CSc2nnc(-c3ccccn3)n2Cc2cccs2)c(F)c1 [Compound 2{24}]"
assay_result = "~155%"

[[record]]
molecule = "Fc1ccc(CSc2nnc(-c3ccccn3)n2Cc2ccco2)c(F)c1F [Compound 2{43}]"
assay_result = "~140%"

[[record]]
molecule = "Clc1ccc(CSc2nnc(-c3ccccn3)n2Cc2cccs2)c(Cl)c1 [Compound 2{2}]"
assay_result = "~120%"


###

study.target: 5ht2c (Homo sapiens)
Sequence (P28335 33-458, species assumed): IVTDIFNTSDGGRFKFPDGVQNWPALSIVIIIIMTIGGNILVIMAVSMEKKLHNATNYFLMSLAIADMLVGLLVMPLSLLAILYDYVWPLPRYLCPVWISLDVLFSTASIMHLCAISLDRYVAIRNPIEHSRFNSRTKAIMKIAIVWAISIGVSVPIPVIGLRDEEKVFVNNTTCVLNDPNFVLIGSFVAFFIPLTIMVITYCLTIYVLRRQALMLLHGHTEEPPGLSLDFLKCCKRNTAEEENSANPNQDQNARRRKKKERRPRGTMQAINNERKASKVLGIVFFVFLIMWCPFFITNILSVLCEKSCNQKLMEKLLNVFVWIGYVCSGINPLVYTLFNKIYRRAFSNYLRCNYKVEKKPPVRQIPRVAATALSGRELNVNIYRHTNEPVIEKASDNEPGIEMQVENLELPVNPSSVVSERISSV
protocol.description: PDSP radioligand binding assay
test.conditions: Table 5
readout.name: Ki

[[record]]
smiles_structure = "COc1ccc(N2CCN(CCCNC(=O)Cn3c(=O)c4cccn4c4c(C)ccnc43)CC2)cc1"
assay_result = "> 10 µM"


###

protocol.description: in vitro
test.conditions: PAMPA, pH 6.2
readout.name: Papp (×10⁻⁶ cm/s)

[[record]]
smiles_structure = "COc1ccc(N2CCN(CCCNC(=O)Cn3c(=O)c4cccn4c4c(C)ccnc43)CC2)cc1"
assay_result = 227


###

study.target: GabaA
protocol.description: PDSP radioligand binding assay
test.conditions: Table 5
readout.name: Ki

[[record]]
molecule = "COc1ccc(N2CCN(CCCNC(=O)Cn3c(=O)c4cccn4c4c(C)ccnc43)CC2)cc1 [Compound 1{3}]"
assay_result = "> 10 µM"


###

study.target: BZP Rat Brain Site
protocol.description: PDSP radioligand binding assay
test.conditions: Table 10
readout.name: Ki

[[record]]
compound = "Clc1ccc(CSc2nnc(-c3ccccn3)n2Cc2ccco2)cc1Cl [Compound 2{8}]"
readout_name = "Ki"
assay_result = "> 10 µM"


###

study.target: UniProtKB P35368
protocol.description: PDSP radioligand binding assay
test.conditions: Table 5
readout.name: Ki

[[record]]
smiles_structure = "COc1ccc(N2CCN(CCCNC(=O)Cn3c(=O)c4cccn4c4c(C)ccnc43)CC2)cc1"
study_target = "UniProtKB P35368"
assay_result = "> 10 µM"


###

study.target: Alpha1B (Homo sapiens)
Sequence (P35368 whole entry): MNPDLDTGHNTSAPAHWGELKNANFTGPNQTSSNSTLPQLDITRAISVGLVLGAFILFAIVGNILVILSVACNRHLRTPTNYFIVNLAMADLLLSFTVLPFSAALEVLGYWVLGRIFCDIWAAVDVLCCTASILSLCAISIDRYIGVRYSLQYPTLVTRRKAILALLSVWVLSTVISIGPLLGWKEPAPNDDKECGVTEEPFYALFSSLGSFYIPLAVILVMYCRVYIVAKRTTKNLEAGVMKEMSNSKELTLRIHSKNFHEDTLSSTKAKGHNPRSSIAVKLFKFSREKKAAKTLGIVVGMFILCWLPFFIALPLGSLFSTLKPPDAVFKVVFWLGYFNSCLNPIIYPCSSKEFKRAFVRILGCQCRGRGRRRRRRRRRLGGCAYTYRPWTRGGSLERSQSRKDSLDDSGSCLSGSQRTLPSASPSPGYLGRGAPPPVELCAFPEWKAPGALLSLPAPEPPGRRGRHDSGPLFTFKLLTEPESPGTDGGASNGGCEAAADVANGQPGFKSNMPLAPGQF
protocol.description: PDSP radioligand binding assay
test.conditions: Table 10
readout.name: Ki

[[record]]
smiles_structure = "Clc1ccc(CSc2nnc(-c3ccccn3)n2Cc2ccco2)cc1Cl"
assay_result = "> 10 µM"


###

study.target: BZP Rat Brain Site
protocol.description: PDSP radioligand binding assay
test.conditions: Table 5
pKi: −log10 of the molar value.
readout.name: pKi

[[record]]
compound = "COc1ccc(N2CCN(CCCNC(=O)Cn3c(=O)c4cccn4c4c(C)ccnc43)CC2)cc1 [Compound 1{3}]"
assay_result = "< 5.00"


###

study.target: H2 (Homo sapiens)
Sequence (P25021 whole entry): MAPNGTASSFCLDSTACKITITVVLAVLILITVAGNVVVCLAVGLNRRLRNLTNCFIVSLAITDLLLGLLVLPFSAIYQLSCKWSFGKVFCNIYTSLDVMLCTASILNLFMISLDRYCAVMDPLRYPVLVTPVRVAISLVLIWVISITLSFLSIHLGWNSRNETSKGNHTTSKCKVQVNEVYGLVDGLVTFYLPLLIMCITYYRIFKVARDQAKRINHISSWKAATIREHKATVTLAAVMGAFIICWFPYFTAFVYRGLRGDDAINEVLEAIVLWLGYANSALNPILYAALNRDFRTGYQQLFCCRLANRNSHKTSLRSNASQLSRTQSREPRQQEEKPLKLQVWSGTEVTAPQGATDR
protocol.description: PDSP radioligand binding assay
test.conditions: Table 10
pKi: −log10 of the molar value.
readout.name: pKi

[[record]]
smiles_structure = "Clc1ccc(CSc2nnc(-c3ccccn3)n2Cc2ccco2)cc1Cl"
assay_result = "< 5.00"


###

study.target: Beta1 (Homo sapiens, UniProt P08588)
Sequence (P08588 whole entry): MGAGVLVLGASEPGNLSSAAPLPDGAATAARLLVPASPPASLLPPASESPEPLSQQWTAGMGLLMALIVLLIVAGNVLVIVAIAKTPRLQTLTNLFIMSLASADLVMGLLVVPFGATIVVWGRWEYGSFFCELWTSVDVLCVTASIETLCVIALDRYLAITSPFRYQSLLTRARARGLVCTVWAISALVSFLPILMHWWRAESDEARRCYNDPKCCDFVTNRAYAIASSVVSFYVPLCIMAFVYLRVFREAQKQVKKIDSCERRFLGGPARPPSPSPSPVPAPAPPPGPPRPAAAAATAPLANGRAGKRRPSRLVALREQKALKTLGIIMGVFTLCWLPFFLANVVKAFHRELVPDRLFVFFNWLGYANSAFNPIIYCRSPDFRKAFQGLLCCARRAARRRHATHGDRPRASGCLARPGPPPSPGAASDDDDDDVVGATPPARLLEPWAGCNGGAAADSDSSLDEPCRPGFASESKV
protocol.description: PDSP radioligand binding assay
test.conditions: Table 10
readout.name: Ki

[[record]]
molecule = "Clc1ccc(CSc2nnc(-c3ccccn3)n2Cc2ccco2)cc1Cl [Compound 2{8}]"
assay_result = "> 10 µM"


###

# IC50 listing for each entry below
study.target: KOR (Homo sapiens, UniProt P41145)
protocol.description: High content imaging β-arrestin translocation assay, KOR antagonist (KOR HCS)
Assay type: cell-based
readout.name: IC50

[[record]]
compound = "Cc1cccc(N2CCN(CCNC(=O)Cn3c(=O)c4cccn4c4cccnc43)CC2)c1C [1{25}]"
assay_result = "> 32 µM"

[[record]]
compound = "COc1ccc(N2CCN(CCNC(=O)Cn3c(=O)c4cccn4c4c(C)ccnc43)CC2)cc1 [1{26}]"
assay_result = "> 32 µM"


###

# pEC50 listing for each entry below
study.target: KOR (Homo sapiens)
protocol.description: DISCOVERX β-arrestin […] assay, agonist mode (KOR DRx)
Assay type: cell-based
test.conditions: agonist; n = 3; read-out: Average Potency KOR DRx
pEC50: −log10 of the molar value.
readout.name: pEC50

[[record]]
molecule = "Brc1ccc(CSc2nnc(-c3ccccn3)n2Cc2cccs2)cc1 [Compound 2{4}]"
study_target = "KOR (Homo sapiens)"
readout_name = "pEC50"
inequality_operator = "="
assay_result = 5.73

[[record]]
molecule = "COc1ccc(CSc2nnc(-c3ccccn3)n2Cc2cccs2)cc1 [Compound 2{21}]"
study_target = "KOR (Homo sapiens)"
readout_name = "pEC50"
inequality_operator = "="
assay_result = 5.02

[[record]]
molecule = "Clc1ccc(CSc2nnc(-c3ccccn3)n2Cc2cccs2)c(Cl)c1 [Compound 2{2}]"
study_target = "KOR (Homo sapiens)"
readout_name = "pEC50"
inequality_operator = "="
assay_result = 5.64

[[record]]
molecule = "CC(=O)Oc1ccc(CSc2nnc(-c3ccccn3)n2Cc2cccs2)cc1 [Compound 2{32}]"
study_target = "KOR (Homo sapiens)"
readout_name = "pEC50"
inequality_operator = "<"
assay_result = 4.70

[[record]]
molecule = "Cc1ccccc1CSc1nnc(-c2ccccn2)n1Cc1cccs1 [Compound 2{36}]"
study_target = "KOR (Homo sapiens)"
readout_name = "pEC50"
inequality_operator = "<"
assay_result = 4.80

